tested on: COLO 205 colon; experiment: NCI tumour cell line growth inhibition, 48 h
measureName: TGI

# example entries with known answers
Enquiry: Report TGI for O=C(/C=C/c1ccc(OCC(=O)N2CCN(c3ccccc3)CC2)cc1)c1ccccc1 please.
Return: > 100 µM

Enquiry: Report TGI for COc1ccc(-c2ccc(/C=N/n3c(COc4ccc(Cl)c(C)c4)nn(CN4CCOCC4)c3=S)o2)c([N+](=O)[O-])c1 please.
Return: > 100 µM

Enquiry: Report TGI for CC(C)=C[C@@H]1C[C@H](C)[C@H]2CC[C@H](C)[C@H]3C(=O)C(O)=C(C)C(=O)[C@]123 please.
Return: > 100 µM

Enquiry: Report TGI for Clc1ccc(N=CNc2ccc(-c3nc4ccccc4[nH]3)cc2)cc1 please.
Return: > 100 µM

Enquiry: Report TGI for N#Cc1c(N/N=C/c2c(Cl)cccc2Cl)nc(N)nc1N1CCCC1 please.
Return: > 100 µM

Please find the next molecule below.
Enquiry: Report TGI for Nc1ccc2ncc(Nc3ccc(Cl)c(Cl)c3)nc2c1 please.
Return: 32.9 µM
